Tested on: Vero E6 infected with SARS-CoV-2
measurementProtocol: morphology score (similarity to uninfected cells); higher = more like uninfected cells
conditionParameters: 24 h
For each record, write down the corresponding morphology score.
Just the number.

INPUT: Would you mind telling me what morphology score value was observed for CC(C)=CCC/C(C)=C/CC/C(C)=C/CSc1ccccc1C(=O)O [salirasib] (10 µM) ?
OUTPUT: 0.161

INPUT: morphology score for O=C(/C=C/c1ccc(O)cc1)c1ccc(O)cc1O [isoliquiritigenin] (10 µM) ?
OUTPUT: 0.403

INPUT: Could you share which morphology score value was measured for CO[C@@]12[C@H](COC(N)=O)C3=C(C(=O)C(C)=C(N)C3=O)N1C[C@@H]1N[C@@H]12 [mitomycin-C] (10 µM) ?
OUTPUT: 0.101

INPUT: Give the measured morphology score of c1cc2c(cc1[C@H]1OC[C@H]3[C@@H]1CO[C@@H]3c1ccc3c(c1)OCO3)OCO2 [sesamin] (10 µM) .
OUTPUT: -0.0737

INPUT: Look up morphology score for this molecule: CCCOCCn1c(=O)c(N2CCN(CCO)CC2)nc2cnc(-c3ccc(OC)nc3)cc21 (10 µM)
OUTPUT: -0.0795

INPUT: What does the data say about its morphology score? Entry: CO[C@H]1/C=C/O[C@@]2(C)Oc3c(C)c(O)c4c(O)c(c5c(nc6cc(C)ccn65)c4c3C2=O)NC(=O)/C(C)=C\C=C\[C@H](C)[C@H](O)[C@@H](C)[C@@H](O)[C@@H](C)[C@H](OC(C)=O)[C@@H]1C [rifaximin] (10 µM)
OUTPUT: 0.0779

INPUT: Param item = CCC[C@H](Nc1nc(-c2ccc(NC(=O)NCC)c(OC)c2)ncc1C)c1cccnc1 (10 µM) ; retrieve measured morphology score.
OUTPUT: -0.29

INPUT: So what does the record say about morphology score for CC(C)(C)C(=O)OCOP(=O)(COCCn1cnc2c(N)ncnc21)OCOC(=O)C(C)(C)C [adefovir-dipivoxil] (10 µM) ?
OUTPUT: -0.117

INPUT: Tell me the measured morphology score of Cn1cc(-c2ccc3c(c2)CCN3C(=O)Cc2cccc(C(F)(F)F)c2)c2c(N)ncnc21 (0.833333 µM) , please.
OUTPUT: 0.029

INPUT: // morphology score lookup, key: CCCS(=O)(=O)Nc1ccc(F)c(C(=O)c2c[nH]c3ncc(Cl)cc23)c1F (10 µM)
OUTPUT: -0.0271

INPUT: Look up morphology score: C=C[C@]1(C)C[C@@H](OC(=O)CSC(C)(C)CNC(=O)[C@H](N)C(C)C)[C@]2(C)[C@H](C)CC[C@]3(CCC(=O)[C@H]32)[C@@H](C)[C@@H]1O [valnemulin] (10 µM)
OUTPUT: 0.0538

INPUT: # morphology score lookup, item CCCCCCCCCCCCCCCC[N+](C)(C)C [cetrimonium] (0.833333 µM)
OUTPUT: -0.199

INPUT: Please give the measured morphology score for this molecule: COc1ccc2[nH]cc(C3=CCNCC3)c2c1 (10 µM)
OUTPUT: 0.191

INPUT: I would be grateful if you could share the reported morphology score for CC(C)NCC(O)COc1cccc2[nH]c3ccccc3c12 (centres undefined) [carazolol] (10 µM) .
OUTPUT: -0.011

INPUT: Entry under review: N=C(NCc1ccc(Cl)cc1)SCCCc1c[nH]cn1 [clobenpropit] (10 µM) . Reported morphology score?
OUTPUT: 0.14

INPUT: State the recorded morphology score for this entry: O=C(O)c1ccc(/C=C2\SC(=S)N(c3cccc(C(F)(F)F)c3)C2=O)cc1 (10 µM)
OUTPUT: 0.125

INPUT: Reported morphology score for CCOC(=O)[C@H](CCc1ccccc1)N[C@@H](C)C(=O)N1C(=O)N(C)C[C@H]1C(=O)O [imidapril] (10 µM) : what is it?
OUTPUT: -0.0373

INPUT: Which measured morphology score value corresponds to Cc1ccc(-c2ccc(C)cn2)nc1 [abametapir] (10 µM) ?
OUTPUT: 0.0247

INPUT: # lookup: morphology score of COc1cc2c(cc1-c1c(C)noc1C)ncc1[nH]c(=O)n([C@H](C)c3ccccn3)c12 (10 µM)
OUTPUT: -0.154
